Test system: MCP-I
Assay: MCP-I cytokine elevation in serum
Type: in vivo
Conditions: cirRNA (SEQ ID NO: 1) LNPs, mice, 24 hours
Output Yes for records whose MCP-I in Sera 24 hours After 0.5 MPK Injection is lower than 600 pg/mL, No for records at or above 600 pg/mL.

Below, 5 molecules whose answers are already recorded.
> print(dat)
                                   molecule  target  label
1  CCCCC/C=C\C/C=C\CCCCCCCCN(CCCCCCCC(=O)OC(CCCCCCCC)CCCCCCCC)CCCOC(=O)NCc1ncc[nH]1   MCP-I    Yes
2  CCCCCCCCC(CCCCCC)C(=O)OCCCCCCCCN(CCCCCCCCOC(=O)C(CCCCCC)CCCCCCCC)CCCOC(=O)NCCCN(CC)CC (stereo not shown)   MCP-I    Yes
3  CCCCCCCCC(CCCCCCCC)OC(=O)CCCCCCCN(CCCCCCCCOC(=O)C(CCCCCC)CCCCCCCC)CCCOC(=O)NCCN(C)C (stereo not shown)   MCP-I     No
4  CCCCCCCCCCC(CCCCCCCC)COC(=O)CCCCCN(CCCCCCCCOC(=O)C(CCCCCC)CCCCCCCC)CCOC(=O)NCCN(C)C (stereo not shown)   MCP-I    Yes
5  CCCCC/C=C\C/C=C\CCCCCCCCN(CCCCCCCC(=O)OC(CCCCCCCC)CCCCCCCC)CCCOC(=O)NCCN1CCCCC1   MCP-I     No

Asked: Quick check: MCP-I in Sera 24 hours After 0.5 MPK Injection of CCCCCCCCC(CCCCCC)C(=O)OCCCCCCCCN(CCCCCCCCOC(=O)C(CCCCCC)CCCCCCCC)CCCOC(=O)NCCN1CCCCC1 (stereo not shown) under 600 pg/mL?
Given back: No

Asked: Quick check: MCP-I in Sera 24 hours After 0.5 MPK Injection of CCCCC/C=C\CCOC(=O)CCCCCN(CCCCCC(=O)OCC(CCCCCCCC)CCCCCCCCCC)CCOC(=O)NCCN1CCCCC1 (stereo not shown) under 600 pg/mL?
Given back: Yes

====

A collection of molecules and their measured In vivo Expression (Whole Body)
Tested on: BALB/C mice
Assay: In vivo expression, whole-body luminescence (IVIS)
Details: cirRNA (SEQ ID NO: 1) LNPs, BALB/C mice
Give the value as a plain number.

Short answer on BALB/C mice for CCCCC/C=C\C/C=C\CCCCCCCCN(CCCCCCCC/C=C\CCCCCCCC)CCOC(=O)NCCCN(CC)CC [Lipid 69] , In vivo Expression (Whole Body): 2.17E+06

Short answer on BALB/C mice for CCCCC/C=C\CCOC(=O)CCCCCN(CCCCCCCCOC(=O)C(CCCCCC)CCCCCCCC)CCOC(=O)NCc1ncc[nH]1 (centres unmarked) [Lipid 185] , In vivo Expression (Whole Body): 1.22E+08

Short answer on BALB/C mice for CCCCCCCCCCC(CCCCCCCC)COC(=O)CCCCCN(CCCCCC(=O)OCC(CCCCCCCC)CCCCCCCCCC)CCOC(=O)NCc1ncc[nH]1 (centres unmarked) [Lipid 171] , In vivo Expression (Whole Body): 5.09E+07

Short answer on BALB/C mice for CCCCC/C=C\CCOC(=O)CCCCCN(CCCCCCCCOC(=O)C(CCCCCC)CCCCCCCC)CCOC(=O)NCCN1CCOCC1 (centres unmarked) [Lipid 188] , In vivo Expression (Whole Body): 2.17E+07

Short answer on BALB/C mice for CCCCCCCCCCC(CCCCCCCC)COC(=O)CCCCCN(CCCCCC(=O)OCC(CCCCCCCC)CCCCCCCCCC)CCCOC(=O)NCCCN(CC)CC (centres unmarked) [Lipid 366] , In vivo Expression (Whole Body): 3.26E+06

Short answer on BALB/C mice for CCCCCCCCCCCOC(=O)CCCCCN(CCCCCCCC(=O)OC(CCCCCCCC)CCCCCCCC)CCOC(=O)NCCN1CCCC1 [Lipid 164] , In vivo Expression (Whole Body): 7.11E+07

Short answer on BALB/C mice for CCCCC/C=C\CCOC(=O)CCCCCN(CCCCCCCCOC(=O)C(CCCCCC)CCCCCCCC)CCOC(=O)NCCN1CCN(C)CC1 (centres unmarked) [Lipid 187] , In vivo Expression (Whole Body): 2.29E+06

Short answer on BALB/C mice for CCCCCCCCCCCOC(=O)CCCCCN(CCCCCC(=O)OCCCCCCCCCCC)CCOC(=O)NCCN1CCN(C)CC1 [Lipid 156] , In vivo Expression (Whole Body): 4.92E+04

====

Tested on: Hep G2 cells
Assay: In vitro toxicity (CellTiter-Glo cell viability), Hep G2;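 note: percent of untreated cells luminescence signal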
Format: cell-based
Details: cirRNA (SEQ ID NO: 1) LNPs; Hep G2 cells
Experimental: RAW 264.7 and Hep G2 cells were transfected with 1 μg/mL RNA-LNPs. At 72 hours post transfection, cell viability was determined with the CellTiter-Glo® reagent kit, according to the kit protocol, measured by a luminometer. The cell viability was calculated according to the following formula: […]
quantity_measured: In vitro Viability HepG2 (%)
# output: bare number, implied unit %

Example cases with answers are listed next.
> print(dat)
                                   compound  unit.descriptor  assay.value
1  CCCCCCOC(=O)CCCCCCCCCCN(CCCCCCCCCCC(=O)OCCCCCC)CCOC(=O)NCCN(C)C [Lipid 136]                %           20
2  CCCCC/C=C\C/C=C\CCCCCCCCN(CCCCCCCC(=O)OC(CCCCCCCC)CCCCCCCC)CCCOC(=O)NCCN1CCOCC1 [Lipid 274]                %           97
3  CCCCC/C=C\C/C=C\CCCCCCCCN(CCCCCCCC/C=C\C/C=C\CCCCC)CCOC(=O)NCCN1CCN(C)CC1 [Lipid 37]                %           87
4  CCCCCCCCC(CCCCCCCC)OC(=O)CCCCCCCN(CCCCCCCCOC(=O)C(CCCCCC)CCCCCCCC)CCCOC(=O)NCCN1CCCCC1 (centres unmarked) [Lipid 351]                %           96
5  CCCCC/C=C\CCOC(=O)CCCCCN(CCCCCCCCOC(=O)C(CCCCCC)CCCCCCCC)CCOC(=O)NCCN1CCOCC1 (centres unmarked) [Lipid 188]                %           96

// recorded In vitro Viability HepG2 for CCCCC/C=C\C/C=C\CCCCCCCCN(CCCCCCCC/C=C\C/C=C\CCCCC)CCOC(=O)NCc1ncc[nH]1 [Lipid 39] : 90

// recorded In vitro Viability HepG2 for CCCCCCCCC(CCCCCCCC)OC(=O)CCCCCCCN(CCCCCCCCOC(=O)C(CCCCCC)CCCCCCCC)CCCOC(=O)NCCN(C)C (centres unmarked) [Lipid 344] : 96

// recorded In vitro Viability HepG2 for CCCCCCCCC(CCCCCCCC)OC(=O)CCCCCCCN(CCCCCCCCOC(=O)C(CCCCCC)CCCCCCCC)CCOC(=O)NCCN(C)C (centres unmarked) [Lipid 66] : 93

// recorded In vitro Viability HepG2 for CCCCC/C=C\C/C=C\CCCCCCCCN(CCCCCCCC(=O)OC(CCCCCCCC)CCCCCCCC)CCOC(=O)NCCCN(CC)CC [Lipid 131] : 83

// recorded In vitro Viability HepG2 for CCCCCCCCC(CCCCCCCC)OC(=O)CCCCCCCN(CCCCCCCCOC(=O)C(CCCCCC)CCCCCCCC)CCCOC(=O)NCCc1ncc[nH]1 (centres unmarked) [Lipid 349] : 90

====

A collection of molecules and their measured Size
Assay: LNP size and polydispersity index (PDI) by dynamic light scattering
Type: physicochemical
Conditions: LNP with cirRNA (SEQ ID NO: 1); in nm (unit assumed)
Give the value as a plain number.

Example cases with answers are listed next.
> print(dat)
                                   molecule  assay.value
1  CCCCCCCCCCC(CCCCCCCC)COC(=O)CCCCCN(CCCCCC(=O)OCC(CCCCCCCC)CCCCCCCCCC)CCCOC(=O)NCc1ncc[nH]1 (stereo not drawn)        72.69
2  CCCCC/C=C\C/C=C\CCCCCCCCN(CCCCCCCC/C=C\CCCCCCCC)CCOC(=O)NCc1ncc[nH]1        57.94
3  CCCCCCCCC(CCCCCC)C(=O)OCCCCCCCCN(CCCCCCCCOC(=O)C(CCCCCC)CCCCCCCC)CCCNCCCN(CC)CC (stereo not drawn)          159
4  CCCCCCCCCCCOC(=O)CCCCCN(CCCCCCCC(=O)OC(CCCCCCCC)CCCCCCCC)CCOC(=O)NCCCn1ccnc1        61.87
5  CCCCCCCCCC(=O)OCCCCCCCCN(CCCCCCCCOC(=O)CCCCCCCCC)CCOC(=O)NCCN(C)C        60.75

API: the following record is the query input.
// recorded Size for CCCCCCCCCC(=O)OCCCCCCCN(CCCCCCCCOC(=O)C(CCCCCC)CCCCCCCC)CCOC(=O)NCc1ncc[nH]1 (stereo not drawn) : 64.1
